Test system: Escherichia coli TOP10
experiment: shrunken log2 fold change of peptide-encoding DNA abundance (4.5 h post-induction vs induction); higher = less antimicrobial activity (less host growth inhibition)
run conditions: time post-induction: 4.5 h; library: site-saturation at positions 5, 18, 19, 20
Given measured shrunken log2 fold change, output yes if it is greater than or equal to 0.4 and no if not.

>  <entry sequence>
RRIRQRPPRLPRPRPRPSERPRP

>  <tested target>
Escherichia coli TOP10

>  <class label>
no

$$$$
>  <entry sequence>
RRIRRRPPRLPRPRPRPPNEPRP

>  <tested target>
Escherichia coli TOP10

>  <class label>
yes

$$$$
>  <entry sequence>
RRIRPRPPRLPRPRPRPMLIPRP

>  <tested target>
Escherichia coli TOP10

>  <class label>
no

$$$$
>  <entry sequence>
RRIRARPPRLPRPRPRPDWVPRP

>  <tested target>
Escherichia coli TOP10

>  <class label>
yes

$$$$
>  <entry sequence>
RRIRNRPPRLPRPRPRPQGDPRP

>  <tested target>
Escherichia coli TOP10

>  <class label>
yes

$$$$
>  <entry sequence>
RRIRGRPPRLPRPRPRPTHLPRP

>  <tested target>
Escherichia coli TOP10

>  <class label>
no

$$$$
>  <entry sequence>
RRIRQRPPRLPRPRPRPFPAPRP

>  <tested target>
Escherichia coli TOP10

>  <class label>
no

$$$$
>  <entry sequence>
RRIRNRPPRLPRPRPRPWDAPRP

>  <tested target>
Escherichia coli TOP10

>  <class label>
no

$$$$

###

Tested on: Escherichia coli TOP10
experiment: shrunken log2 fold change of peptide-encoding DNA abundance (4.5 h post-induction vs induction); higher = less antimicrobial activity (less host growth inhibition)
run conditions: time post-induction: 4.5 h; library: site-saturation at positions 5, 18, 19, 20
Given measured shrunken log2 fold change, output T if it is greater than or equal to -0.06 and F if not.

>  <entry sequence>
RRIRDRPPRLPRPRPRPYFDPRP

>  <class label>
F

$$$$
>  <entry sequence>
RRIRYRPPRLPRPRPRPHDMPRP

>  <class label>
T

$$$$
>  <entry sequence>
RRIRWRPPRLPRPRPRPPPAPRP

>  <class label>
T

$$$$
>  <entry sequence>
RRIRNRPPRLPRPRPRPQEDPRP

>  <class label>
T

$$$$
>  <entry sequence>
RRIRYRPPRLPRPRPRPYGIPRP

>  <class label>
F

$$$$
>  <entry sequence>
RRIRGRPPRLPRPRPRPRWEPRP

>  <class label>
T

$$$$
>  <entry sequence>
RRIRARPPRLPRPRPRPIKSPRP

>  <class label>
T

$$$$
>  <entry sequence>
RRIRLRPPRLPRPRPRPIFCPRP

>  <class label>
F

$$$$
>  <entry sequence>
RRIRPRPPRLPRPRPRPCGGPRP

>  <class label>
T

$$$$
>  <entry sequence>
RRIRYRPPRLPRPRPRPRCRPRP

>  <class label>
F

$$$$
>  <entry sequence>
RRIRRRPPRLPRPRPRPDKMPRP

>  <class label>
F

$$$$
>  <entry sequence>
RRIRDRPPRLPRPRPRPNGTPRP

>  <class label>
T

$$$$
>  <entry sequence>
RRIRTRPPRLPRPRPRPNSDPRP

>  <class label>
T

$$$$
>  <entry sequence>
RRIRRRPPRLPRPRPRPAHPPRP

>  <class label>
T

$$$$
>  <entry sequence>
RRIRDRPPRLPRPRPRPTFSPRP

>  <class label>
T

$$$$

###

Test system: Escherichia coli TOP10
experiment: shrunken log2 fold change of peptide-encoding DNA abundance (4.5 h post-induction vs induction); higher = less antimicrobial activity (less host growth inhibition)
run conditions: time post-induction: 4.5 h; library: site-saturation at positions 5, 18, 19, 20
shrunken log2 fold change values by entry
endpoint: shrunken log2 fold change

>  <entry sequence>
RRIRHRPPRLPRPRPRPNTYPRP

>  <endpoint>
shrunken log2 fold change

>  <recorded number>
-0.742

$$$$
>  <entry sequence>
RRIRRRPPRLPRPRPRPVCPPRP

>  <endpoint>
shrunken log2 fold change

>  <recorded number>
0.32

$$$$
>  <entry sequence>
RRIRLRPPRLPRPRPRPSGFPRP

>  <endpoint>
shrunken log2 fold change

>  <recorded number>
-0.259

$$$$
>  <entry sequence>
RRIRNRPPRLPRPRPRPFRGPRP

>  <endpoint>
shrunken log2 fold change

>  <recorded number>
0.168

$$$$
>  <entry sequence>
RRIRDRPPRLPRPRPRPNTCPRP

>  <endpoint>
shrunken log2 fold change

>  <recorded number>
-0.0241

$$$$
>  <entry sequence>
RRIRTRPPRLPRPRPRPACEPRP

>  <endpoint>
shrunken log2 fold change

>  <recorded number>
0.0463

$$$$
>  <entry sequence>
RRIRNRPPRLPRPRPRPNSWPRP

>  <endpoint>
shrunken log2 fold change

>  <recorded number>
-0.3

$$$$
>  <entry sequence>
RRIRYRPPRLPRPRPRPHGEPRP

>  <endpoint>
shrunken log2 fold change

>  <recorded number>
0.0796

$$$$

###

shrunken log2 fold change values by entry
System: Escherichia coli TOP10;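 further: peptides expressed intracellularly from a pBAD plasmid library in pooled LB shake-flask culture, induced with 0.3% L-arabinose, DNA abundance read by NGS, three biological replicates, DESeq2 with apeglm shrinkage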
experiment: shrunken log2 fold change of peptide-encoding DNA abundance (4.5 h post-induction vs induction); higher = less antimicrobial activity (less host growth inhibition)
run conditions: time post-induction: 4.5 h; library: site-saturation at positions 5, 18, 19, 20
endpoint: shrunken log2 fold change

>  <entry sequence>
RRIRARPPRLPRPRPRPRTHPRP

>  <recorded number>
0.259

$$$$
>  <entry sequence>
RRIRSRPPRLPRPRPRPSQSPRP

>  <recorded number>
-0.242

$$$$
>  <entry sequence>
RRIRFRPPRLPRPRPRPQVNPRP

>  <recorded number>
-0.0623

$$$$
>  <entry sequence>
RRIRIRPPRLPRPRPRPSPCPRP

>  <recorded number>
-0.761

$$$$
>  <entry sequence>
RRIRFRPPRLPRPRPRPQFTPRP

>  <recorded number>
-0.362

$$$$
>  <entry sequence>
RRIRIRPPRLPRPRPRPFSVPRP

>  <recorded number>
-0.248

$$$$
>  <entry sequence>
RRIRLRPPRLPRPRPRPKWMPRP

>  <recorded number>
-0.00339

$$$$
>  <entry sequence>
RRIRFRPPRLPRPRPRPKNHPRP

>  <recorded number>
-0.347

$$$$
>  <entry sequence>
RRIRNRPPRLPRPRPRPKRHPRP

>  <recorded number>
-0.455

$$$$
>  <entry sequence>
RRIRIRPPRLPRPRPRPQYWPRP

>  <recorded number>
-0.361

$$$$
>  <entry sequence>
RRIRRRPPRLPRPRPRPTVWPRP

>  <recorded number>
0.359

$$$$
>  <entry sequence>
RRIRSRPPRLPRPRPRPMGDPRP

>  <recorded number>
0.00987

$$$$
>  <entry sequence>
RRIRIRPPRLPRPRPRPHRQPRP

>  <recorded number>
-0.152

$$$$
>  <entry sequence>
RRIRYRPPRLPRPRPRPNLPPRP

>  <recorded number>
-0.479

$$$$
>  <entry sequence>
RRIRYRPPRLPRPRPRPFIPPRP

>  <recorded number>
-0.296

$$$$
